Every entry's value here was drawn from patent US4009166A.

Tested on: righting reflex of dd-strain male mice
test description: Central nervous system depressive effect (disappearance of righting reflex)
Format: in vivo
measurement context: Mus musculus, ip; intraperitoneally, mice; read-out: C N S depressive effect (dose required for the disappearance of righting reflex)
Here, each record is paired with measured minimal effective dose data.
quantity kind: minimal effective dose

molecule | quantity kind | value
CCN1CN(c2cccc([N+](=O)[O-])c2)c2ncccc2C1=O [drawing 123/C2 H5] | minimal effective dose | 30 to 100 mg/kg
CN1Cc2cccnc2N(c2cccc(Cl)c2)C1=O [drawing 132/CH3] | minimal effective dose | < 3 mg/kg
CN1Cc2cccnc2N(c2ccccc2)C1=O [drawing 126/CH3] | minimal effective dose | 3 to 10 mg/kg
CCN1Cc2cccnc2N(c2ccc(Cl)cc2)C1=O [drawing 133/C2 H5] | minimal effective dose | < 3 mg/kg
CC(C)N1CN(c2cccc([N+](=O)[O-])c2)c2ncccc2C1=O | minimal effective dose | 100 to 300 mg/kg
CCN1Cc2cccnc2N(c2cccc(C(F)(F)F)c2)C1=O [drawing 135/C2 H5] | minimal effective dose | 3 to 10 mg/kg
CN1CN(c2cccc([N+](=O)[O-])c2)c2ncccc2C1=O [drawing 123/CH3] | minimal effective dose | > 1000 mg/kg
CN1CN(c2cccc(Br)c2)c2ncccc2C1=O [drawing 121/CH3] | minimal effective dose | 30 to 100 mg/kg
O=C(O)CN1Cc2cccnc2N(c2cccc(C(F)(F)F)c2)C1=O [drawing 135/CH2 COOH] | minimal effective dose | > 1000 mg/kg
CCCCC1C(=O)N(c2ccccc2)N(c2ccccc2)C1=O [phenylbutazone, reference compound] | minimal effective dose | 300 to 1000 mg/kg
CCN1Cc2cccnc2N(c2ccc(Cl)c(Cl)c2)C1=O [drawing 137/C2 H5] | minimal effective dose | < 3 mg/kg
COCN1Cc2cccnc2N(c2cccc(C(F)(F)F)c2)C1=O [drawing 135/CH2 OCH3] | minimal effective dose | 10 to 30 mg/kg
O=C1N(CCO)Cc2cccnc2N1c1cccc(C(F)(F)F)c1 [drawing 135/CH2 CH2 OH] | minimal effective dose | > 1000 mg/kg
CN1Cc2cccnc2N(c2ccccc2Cl)C1=O [drawing 130/CH3] | minimal effective dose | 30 to 100 mg/kg
CCCN1Cc2cccnc2N(c2cccc(Br)c2)C1=O [drawing 134/CH2 CH2 CH3] | minimal effective dose | 3 to 10 mg/kg
CCN1Cc2cccnc2N(c2ccc(F)cc2)C1=O [drawing 129/C2 H5] | minimal effective dose | 10 to 30 mg/kg
COCN1Cc2cccnc2N(c2cccc(Cl)c2)C1=O [drawing 132/CH2 OCH3] | minimal effective dose | 3 to 10 mg/kg
CCN1Cc2cccnc2N(c2ccccc2)C1=O [drawing 126/C2 H5] | minimal effective dose | 3 to 10 mg/kg
CCN1Cc2cccnc2N(c2cccc(Br)c2)C1=O [drawing 134/C2 H5] | minimal effective dose | < 3 mg/kg

---

System: dd-strain male mice
measurement context: i.p., deaths 72 hours after administration
Protocol: The lethal dose was estimated from the death of animals 72 hours after administration.

compound | target of assay | acute toxicity i.p. (lethal dose)
CN1CN(c2cccc([N+](=O)[O-])c2)c2ncccc2C1=O [drawing 123/CH3] | dd-strain male mice | > 1000 mg/kg
CCN1CN(c2cccc(Br)c2)c2ncccc2C1=O [drawing 121/C2 H5] | dd-strain male mice | > 1000 mg/kg
O=C(O)CN1Cc2cccnc2N(c2cccc(C(F)(F)F)c2)C1=O [drawing 135/CH2 COOH] | dd-strain male mice | > 1000 mg/kg
CCN1CN(c2cccc(C(F)(F)F)c2)c2ncccc2C1=O [drawing 122/C2 H5] | dd-strain male mice | > 1000 mg/kg
CCN1CN(c2cccc([N+](=O)[O-])c2)c2ncccc2C1=O [drawing 123/C2 H5] | dd-strain male mice | 1000 mg/kg
CC(C)N1Cc2cccnc2N(c2cccc(C(F)(F)F)c2)C1=O | dd-strain male mice | > 1000 mg/kg
O=C1N(CCO)Cc2cccnc2N1c1cccc(C(F)(F)F)c1 [drawing 135/CH2 CH2 OH] | dd-strain male mice | > 1000 mg/kg
CN1CN(c2cccc(Br)c2)c2ncccc2C1=O [drawing 121/CH3] | dd-strain male mice | > 1000 mg/kg
Cc1c(N(C)C)c(=O)n(-c2ccccc2)n1C [aminopyrine, reference compound] | dd-strain male mice | 100 to 300 mg/kg
CC(C)N1Cc2cccnc2N(c2ccc(Cl)c(Cl)c2)C1=O | dd-strain male mice | 1000 mg/kg
O=C(O)c1ccccc1Nc1cccc(C(F)(F)F)c1 [flufenamic acid, reference compound] | dd-strain male mice | 300 to 1000 mg/kg
CCN1Cc2cccnc2N(c2ccccc2)C1=O [drawing 126/C2 H5] | dd-strain male mice | 300 mg/kg
CC(C)N1CN(c2cccc([N+](=O)[O-])c2)c2ncccc2C1=O | dd-strain male mice | > 1000 mg/kg
CCN1Cc2cccnc2N(c2cccc(Br)c2)C1=O [drawing 134/C2 H5] | dd-strain male mice | 100 300 mg/kg
